Every entry's value here was drawn from PubChem BioAssay (NCI).

TGI reference
test system: COLO 205 colon; assay: NCI tumour cell line growth inhibition, 48 h

compound: COCOC1/C=C/CCCCC(=O)C(C)C#CC1 (stereo not given)
TGI: 5.4 µM

Query string: Entry under review: COc1cc(OCCN(C)C)c2[nH]c(C(=O)N3CC(CCl)c4ccc(N)cc43)cc2c1 (stereo not given) . Reported TGI?
Result string: 0.17 µM

Query string: GET /values?readout=TGI&item= `O=C1OC(c2ccccc2)=N/C1=C\c1ccc([N+](=O)[O-])cc1`
Result string: > 100 µM

* * *

system: COLO 205 colon; assay: NCI tumour cell line growth inhibition, 48 h
measured_metric: TGI (µM)
Reply with just the number (in µM).

Example results:
compound: O=[N+]([O-])c1cc([N+](=O)[O-])c(C(F)(F)F)cc1NN=C(c1ccc(O)cc1)c1ccc(O)cc1
TGI [µM]: 5.33

compound: O=C(Nc1cccc(C(F)(F)F)c1)Nc1cccc(C(F)(F)F)c1
TGI [µM]: 2.59

compound: CCCCCCCCCCSC(=N)N (tested in a mixture with another compound)
TGI [µM]: 3.78

compound: C=C1C(=O)O[C@H]2[C@H]1CC/C(CNC(=O)c1cc3ccccc3[nH]1)=C\CC[C@@]1(C)O[C@@H]21
TGI [µM]: 2.6

compound: O=C1c2ccccc2C(=O)c2c(/C=C\N3CCCCC3)ccnc21
TGI [µM]: 6.06

compound: COCCOCOC(CCCCO)c1cc(C)c(O[Si](C)(C)C(C)(C)C)c(C)c1 (centres undefined)
TGI [µM]: 22.3

compound: C/C(=N\NC(N)=S)c1ccc2c(c1)Sc1ccccc1O2
TGI [µM]: 7.28

compound: CC[C@@H](c1ccc(O)c(O)c1)[C@@H](CC)c1ccc(O)c(O)c1
TGI [µM]: 4.11

// next entry
Query string: I'd like to know its TGI. The compound in question is `c1ccc(-c2n(Cc3ccc4ccccc4n3)cc[n+]2Cc2ccc3ccccc3c2)cc1`
Result string: 2.26

* * *

tested on: SN12C renal; assay: NCI tumour cell line growth inhibition, 48 h
measured_metric: TGI

Examples from the recorded data:
compound: N#CC(C(=O)CCC(=O)Nc1ccc(Cl)c(Cl)c1)c1ccccc1 (stereo unspecified)
measured_metric: TGI
value_measured: > 100 µM
//
compound: CC1=C/C(=N\NC(N)=S)C(C(O)(C(F)(F)F)C(F)(F)F)C(C)(C)C1 (stereo unspecified)
measured_metric: TGI
value_measured: > 10 µM
//
compound: CCn1cnc2c(=S)nc(N)[nH]c21
measured_metric: TGI
value_measured: > 100 µM
//
compound: Nc1nc(Cl)cc(OCC2(CO)CC=CC2)n1
measured_metric: TGI
value_measured: > 100 µM
//
compound: CCN(CC)CCCNC(=O)c1cc(-c2nccn2C)nc2ccccc12
measured_metric: TGI
value_measured: > 100 µM
//
compound: COc1cc2c(cc1OC)-c1cc(OC)c(OC)cc1C(CN(C)C)C2 (stereo unspecified)
measured_metric: TGI
value_measured: > 10 µM
//
compound: O=C1/C(=C/c2ccco2)NC(=S)N1CN1CCCCC1
measured_metric: TGI
value_measured: > 100 µM
//
compound: C=C1C[C@H](O)[C@H](Br)C(C)(C)[C@@]12CCC(C)=C(Cl)C2
measured_metric: TGI
value_measured: 6.61 µM

Here's the next entry for you.
Query string: Param item = O=C(O)C1C2c3ccccc3C(c3ccccc32)C1C(=O)NCC1CC1 (stereo unspecified) ; retrieve measured TGI.
Result string: > 100 µM
